The entries below come with measured PBM binding z-score values attached.
- Test system: RARg homodimer (NR concentration 270 nM)
- Assay comment: PBM binding z-score (relative to random genomic background probes); higher = stronger binding; sequences stand for … in GC…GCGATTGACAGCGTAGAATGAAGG
Measured attribute: PBM binding z-score

>>> endpoint_result("TCATATAGGTAAATGCTAGTTGAAAGTCCGATCT")
0.163
>>> endpoint_result("TATAGCAGGCCAGAGGGTCACTCAAGAGGTACGG")
2.09
>>> endpoint_result("TGAATGAGGTTATGAGATCAGGGAACGTTGCAAA")
1.13
>>> endpoint_result("ATCTCTAGGTACAGTTCAGTGAAAGATCGATAGA")
0.987
>>> endpoint_result("CCTTACGGGTCACGAGGTTATGGCACGACGAGCG")
5.55
>>> endpoint_result("TCTGCTAGGTCAATGATGGTCAGCTAATCTGCTA")
4.62
>>> endpoint_result("CAAACTAGGTCACGAAAGTTCAAAGTCGAATGAC")
7.67
>>> endpoint_result("GCGACTTGGGCATCAGCAGGTTACCATAACTTAA")
-0.319
>>> endpoint_result("GATACAGGGTCAGCTAGAGGCCAGAGTGTGGAAA")
4.74
>>> endpoint_result("GCTATTAGTTGAAAGGGCAACCGTATGATTCTCG")
1.14
>>> endpoint_result("TAGCCTAGGTCATGGGCCAGTATCCCACGCGAAC")
4.2
>>> endpoint_result("TAGCTTAGGTCATGCGGGCCAGTATAGTGTCGGC")
4.75
>>> endpoint_result("TAGCCTAGGTCAGATCGGGCAAGTATACGCTATA")
3.43
>>> endpoint_result("TCTATTAGTTGATTAGGGCAGCCGAAACAGCGGA")
0.628
>>> endpoint_result("ATCGAAAGGTCGACGAGGTGAGTGTACACCGTTT")
4.1

* * *

- System: RARb homodimer (NR concentration 270 nM)
- Assay comment: PBM binding z-score (relative to random genomic background probes); higher = stronger binding; sequences stand for … in GC…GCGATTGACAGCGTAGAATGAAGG
Outcome: criterion met for PBM binding z-score of at least 2; criterion not met for anything lower.

>>> discrete_label("TCTATTAGTTGATTAGGGCATCCGAAACAGCGGA")
"criterion not met"
>>> discrete_label("AATACAGGGTCATCGTCGGCCAGAGTACGCACAG")
"criterion met"
>>> discrete_label("ACTAGCAGGCCAAGGGTTACTCAAGATTAGTCCG")
"criterion not met"
>>> discrete_label("ATCGAAGGGTCGAGGTGAGTATAGAGAAAGGGAA")
"criterion not met"
>>> discrete_label("ACTATTAGTTGAGACAAGGGCAACCGATAGGTTG")
"criterion not met"

* * *

- Test system: PPARg DBDmut:RXRa IVT, anti-PPARg (DBD mutation: PPARg1 K132A/R137A, NR concentration 270 nM, RXRa partner concentration 90 nM)
- Assay comment: PBM binding z-score (relative to random genomic background probes); higher = stronger binding; sequences stand for … in GC…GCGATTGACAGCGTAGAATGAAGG
The entries below come with measured PBM binding z-score values attached.
Measured attribute: PBM binding z-score

>>> endpoint_result("CCAGACGGGTGAGAAGGTAACTCAGCCTCGATTA")
-1.55
>>> endpoint_result("CCTGCTAGGTCACGGTCAGCTAATCTACAGTATG")
1.07
>>> endpoint_result("TCATATAGGTAAACAGGTTAAAGTCCGTAAGTTA")
1.02
